target: T1, human transferrin receptor (hTfR) (human, UniProt P02786 89-760); experiment: SPR, pH 7.4
T1 construct: a His tag is implied by the NTA chip and the anti-His capture; also called human TfR; TfR1
T1 sequence (P02786 89-760 limits assumed): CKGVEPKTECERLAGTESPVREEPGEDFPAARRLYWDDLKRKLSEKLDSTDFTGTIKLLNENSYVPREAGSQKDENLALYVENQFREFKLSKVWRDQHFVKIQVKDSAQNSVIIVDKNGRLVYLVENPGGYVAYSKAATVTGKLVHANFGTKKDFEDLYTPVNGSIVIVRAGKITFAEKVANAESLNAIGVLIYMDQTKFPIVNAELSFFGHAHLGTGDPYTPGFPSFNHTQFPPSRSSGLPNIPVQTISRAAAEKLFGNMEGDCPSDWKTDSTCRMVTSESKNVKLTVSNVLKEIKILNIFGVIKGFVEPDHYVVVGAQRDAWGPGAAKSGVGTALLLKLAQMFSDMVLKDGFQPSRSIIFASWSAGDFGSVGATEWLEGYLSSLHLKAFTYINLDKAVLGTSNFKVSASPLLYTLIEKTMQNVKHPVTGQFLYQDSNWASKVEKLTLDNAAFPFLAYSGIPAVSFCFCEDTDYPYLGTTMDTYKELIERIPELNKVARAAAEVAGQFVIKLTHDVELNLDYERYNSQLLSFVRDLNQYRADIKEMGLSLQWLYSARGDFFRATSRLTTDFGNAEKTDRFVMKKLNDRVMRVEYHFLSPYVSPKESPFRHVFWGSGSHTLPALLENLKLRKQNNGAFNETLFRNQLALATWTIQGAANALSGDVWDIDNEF
Below is a list of entries, each paired with its recorded Kd value.
Write the number in nM without appending the unit.

AVXVWNYXIIRRYXC (3 MeF; 8 F4aao(PEG8Me); 14 MeY; chloroacetyl-Ala1 cyclised to Cys15; linker G-KN3 after Cys15; terminus -NH2, The linker G-KN3 (Gly, N6-diazo-L-lysine) follows Cys15; whether the listing entry holds these two residues cannot be seen here) [894_3434 (SEQ ID NO: 64)] :: 8.74

Now look at this entry.
QUERY: Identify measured Kd associated with AVXVXNYYIIKRYXC (3 MeF3C; 5 3Imp; 14 MeY; chloroacetyl-Ala1 cyclised to Cys15; linker PEG4c after Cys15; terminus -NH2) [894_0610 (SEQ ID NO: 61)]
RESULT: 0.861
